Target entity: T1, BACE1 (Homo sapiens, UniProt P56817)
T1 construct: human β-secretase 1 (BACE1, residue 46-457); made in house; host or cells: HEK293F (secreted, protein A purified)
T1 sequence (P56817 46-457): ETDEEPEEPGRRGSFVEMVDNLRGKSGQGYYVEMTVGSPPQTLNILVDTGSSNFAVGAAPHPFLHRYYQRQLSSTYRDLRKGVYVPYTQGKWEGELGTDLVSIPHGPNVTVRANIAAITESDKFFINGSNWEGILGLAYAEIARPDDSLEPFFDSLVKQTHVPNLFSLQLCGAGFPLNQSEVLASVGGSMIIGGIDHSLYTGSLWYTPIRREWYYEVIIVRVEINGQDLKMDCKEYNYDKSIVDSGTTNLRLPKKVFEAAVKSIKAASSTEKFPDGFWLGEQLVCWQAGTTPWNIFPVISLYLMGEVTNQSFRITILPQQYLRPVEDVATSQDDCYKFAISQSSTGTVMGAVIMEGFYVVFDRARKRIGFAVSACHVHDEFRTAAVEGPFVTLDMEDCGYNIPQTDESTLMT
Assay explanation: FRET peptide inhibition assay, BACE1 (M-2420)
Type: biochemical
Condition label: Fab; BACE-1, FRET peptide; read-out: Inhibition Potency KI
The entries below come with measured Ki values attached.
Recorded endpoint: Ki (nM)

molecule="Fab B2B2: anti-BACE-1 antibody clone; VL SEQ ID NO:44, VH SEQ ID NO:46, CDR-H3 SEQ ID NO:49 (antibody, V domains shown) VH: EVQLVESGGGLVQPGGSLRLSCAASGFNISSYYMHWVRQAPGKGLEWVASIYSSYGYTYYADSVKGRFTISADTSKNTAYLQMNSLRAEDTAVYYCARYWGYYAWFGSHPWAYGAFDYWGQGTLVTVSSAS VL: DIQMTQSPSSLSASVGDRVTITCRASQSVSSAVAWYQQKPGKAPKLLIYSASSLYSGVPSRFSGSRSGTDFTLTISSLQPEDFATYYCQQYGYYLITFGQGTKVEIKR" recorded_endpoint=Ki measured_value=87
molecule="Fab B1B3: anti-BACE-1 antibody clone; VL SEQ ID NO:104, VH SEQ ID NO:61, CDR-H3 SEQ ID NO:64 (antibody, V domains shown) VH: EVQLVESGGGLVQPGGSLRLSCAASGFNISYYSMHWVRQAPGKGLEWVASISPYYGSTYYADSVKGRFTISADTSKNTAYLQMNSLRAEDTAVYYCARERSSCPVGWRDSRFGADGYGLEYWGQGTLVTVSSAS VL: DIQMTQSPSSLSASVGDRVTITCRASQSVSSAVAWYQQKPGKAPKLLIYSASSLYSGVPSRFSGSRSGTDFTLTISSLQPEDFATYYCQQSGHYHSLITFGQGTKVEIKR" recorded_endpoint=Ki measured_value=210
molecule="Fab B1A4: anti-BACE-1 antibody clone; VL SEQ ID NO:33, VH SEQ ID NO:37, CDR-H3 SEQ ID NO:40 (antibody, V domains shown) VH: EVQLVESGGGLVQPGGSLRLSCAASGFNISYSSIHWVRQAPGKGLEWVAYISPSSSYTSYADSVKGRFTISADTSKNTAYLQMNSLRAEDTAVYYCARHYYVSVGSGIDYWGQGTLVTVSSAS VL: DIQMTQSPSSLSASVGDRVTITCRASQSVSSAVAWYQQKPGKAPKLLIYSASSLYSGVPSRFSGSRSGTDFTPTISSLQPEDFATYYCQQASASPYALITFGQGTKVEIKR" recorded_endpoint=Ki measured_value=41
